Emax overview
Biological target: F508delCFTR (Homo sapiens, UniProt P13569, DEL508-508)
Construct: expressed in transfected cells; host or cells: CFBE41o- human lung-derived epithelial cells (CFBE4lo-F508delCFTR-HRP), doxycycline-inducible
Sequence (P13569 with tags, fused parts or gaps DEL508-508): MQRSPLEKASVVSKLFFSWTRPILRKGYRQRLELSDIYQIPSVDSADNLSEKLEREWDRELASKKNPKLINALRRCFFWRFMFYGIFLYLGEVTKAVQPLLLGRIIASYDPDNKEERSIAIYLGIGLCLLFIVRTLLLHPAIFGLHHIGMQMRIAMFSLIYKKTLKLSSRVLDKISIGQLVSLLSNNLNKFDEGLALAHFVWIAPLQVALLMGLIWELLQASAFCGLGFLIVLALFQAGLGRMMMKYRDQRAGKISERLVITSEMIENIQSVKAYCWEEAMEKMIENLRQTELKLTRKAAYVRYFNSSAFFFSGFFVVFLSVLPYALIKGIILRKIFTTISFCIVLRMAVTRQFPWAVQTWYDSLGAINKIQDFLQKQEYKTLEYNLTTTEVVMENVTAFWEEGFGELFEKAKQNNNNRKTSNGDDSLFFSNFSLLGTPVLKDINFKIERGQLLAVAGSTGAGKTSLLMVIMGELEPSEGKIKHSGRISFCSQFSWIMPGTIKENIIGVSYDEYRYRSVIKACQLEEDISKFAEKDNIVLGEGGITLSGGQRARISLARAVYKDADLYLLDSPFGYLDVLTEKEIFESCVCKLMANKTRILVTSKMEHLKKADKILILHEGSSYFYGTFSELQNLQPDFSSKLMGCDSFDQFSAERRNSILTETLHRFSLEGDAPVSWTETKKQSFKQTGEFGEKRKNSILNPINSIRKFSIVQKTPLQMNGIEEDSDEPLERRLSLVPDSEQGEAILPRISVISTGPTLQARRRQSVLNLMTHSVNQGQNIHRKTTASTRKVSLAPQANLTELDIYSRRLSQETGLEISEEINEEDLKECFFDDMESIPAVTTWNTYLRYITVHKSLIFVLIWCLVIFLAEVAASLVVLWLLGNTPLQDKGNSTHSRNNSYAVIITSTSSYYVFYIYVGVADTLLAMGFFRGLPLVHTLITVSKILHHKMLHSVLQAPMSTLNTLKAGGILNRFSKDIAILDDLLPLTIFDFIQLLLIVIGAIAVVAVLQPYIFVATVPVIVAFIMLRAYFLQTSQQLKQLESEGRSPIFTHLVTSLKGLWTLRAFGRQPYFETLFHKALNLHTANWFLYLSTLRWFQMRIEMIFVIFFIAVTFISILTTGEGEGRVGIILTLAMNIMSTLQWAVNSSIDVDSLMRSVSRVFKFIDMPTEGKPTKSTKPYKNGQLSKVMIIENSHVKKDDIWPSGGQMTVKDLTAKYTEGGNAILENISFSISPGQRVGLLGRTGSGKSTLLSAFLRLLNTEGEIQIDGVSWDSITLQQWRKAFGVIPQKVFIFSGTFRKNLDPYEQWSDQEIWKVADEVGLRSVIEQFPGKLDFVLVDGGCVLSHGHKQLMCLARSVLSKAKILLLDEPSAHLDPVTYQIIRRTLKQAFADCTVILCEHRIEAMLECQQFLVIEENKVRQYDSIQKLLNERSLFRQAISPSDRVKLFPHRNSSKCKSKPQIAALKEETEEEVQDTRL
Assay: Cell Surface Expression-Horse Radish Peroxidase (CSE-HRP) Assay;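 for Maximum % activity (without co-corrector): percent of the 2 µM on-plate positive control corrector response above DMSO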
Format: cell-based
Conditions: test compound without co-corrector; maximum at any tested concentration, normalized to on-plate positive control; read-out: Maximum % activity (without co-corrector)

As a guide, the following entries are already answered.
- COMPOUND: "COc1ccc(C(C)(C)C)cc1CN[C@H]1[C@H](C(C)(C)C)[C@@H](C(=O)O)N(C(=O)c2cnn3c2CCCC3)[C@H]1c1ccccc1"
  Emax: "100 to 200%"
- COMPOUND: "COc1ccc(C(F)(F)F)cc1CN[C@@H]1[C@H](C(C)(C)C)[C@@H](C(=O)O)N(C(=O)OC(C)C)[C@H]1c1ccccc1"
  Emax: "< 100%"
- COMPOUND: "COc1ccc(C(C)(C)C)cc1CN[C@H]1[C@H](C(C)(C)C)[C@@H](C(=O)O)N(C(=O)c2cc(F)cc3c2OCOC3)[C@H]1c1ccccc1"
  Emax: "100 to 200%"
- COMPOUND: "Cc1cc(C(F)(F)F)cc(N[C@H]2[C@H](C(C)(C)C)[C@@H](C(=O)O)N(C(=O)C3CCCCO3)[C@H]2c2cccnc2N(C)C)n1 (relative stereo)"
  Emax: "< 100%"
- COMPOUND: "COc1ccc(C(C)(C)C)cc1CN[C@H]1[C@H](C(C)(C)C)[C@@H](C(=O)O)N(C(=O)C2(c3ccccc3)COc3ccccc32)[C@H]1c1ccccc1 (stereo partly drawn)"
  Emax: "< 100%"

Would you kindly look at the next entry?
query: Tell me the measured Emax of COc1ncc(C2(C)CC2(F)F)cc1CN[C@H]1[C@H](C(C)(C)C)[C@@H](C(=O)O)N(C(=O)C2CCCCC2)[C@H]1c1ccccc1 (stereo partly drawn) , please.
result: 100 to 200%

----------
Biological target: F508delCFTR (Homo sapiens, UniProt P13569, DEL508-508)
Construct: expressed in transfected cells; host or cells: CFBE41o- human lung-derived epithelial cells (CFBE4lo-F508delCFTR-HRP), doxycycline-inducible
Assay: Cell Surface Expression-Horse Radish Peroxidase (CSE-HRP) Assay;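 for Maximum % activity (with co-corrector): co-corrector and positive control are both the same reference corrector at 2 µM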
Format: cell-based
Settings: with co-corrector (2 μM of 3-[(2R,4R)-4-({[1-(2,2-difluoro-1,3-benzodioxol-5-yl)cyclopropyl]carbonyl}amino)-7-methoxy-3,4-dihydro-2H-chromen-2-yl]benzoic acid); maximum at any tested concentration, normalized to on-plate positive control
READOUT_NAME: Maximum % activity (with co-corrector)

As a guide, the following entries are already answered.
- MOLECULE: "COc1nc2ccccc2cc1CN[C@H]1[C@H](C(C)(C)C)[C@@H](C(=O)O)N(C(=O)[C@@H]2CCCO2)[C@H]1c1cccnc1N(C)C"
  Maximum % activity (with co-corrector): "++ (≥150 and <350)"
- MOLECULE: "COc1cccc([C@H]2[C@@H](NCc3cc(C(F)(F)F)ccc3OC)[C@H](C(C)(C)C)[C@@H](C(=O)O)N2C(=O)C2CCCOC2)n1 (mixture of isomers)"
  Maximum % activity (with co-corrector): "+++ (≥350)"
- MOLECULE: "CO[C@@H](C(=O)N1[C@H](c2ccccc2)[C@H](Nc2cc(C(F)(F)F)cc(C)n2)[C@@H](C(C)(C)C)[C@@H]1C(=O)O)c1ccccc1"
  Maximum % activity (with co-corrector): "++ (≥150 and <350)"
- MOLECULE: "COc1ncc(C(F)(F)F)cc1CN[C@@H]1[C@@H](C(C)(C)C)[C@H](C(=O)O)N(C(=O)C2CCCCC2)[C@@H]1c1ccccc1 (racemic)"
  Maximum % activity (with co-corrector): "+++ (≥350)"
- MOLECULE: "COc1ccc(C(F)(F)F)cc1CN[C@H]1[C@H](C(C)(C)C)[C@@H](C(=O)O)N(C(=O)OC(C)C)[C@H]1c1cccnc1N(C)C"
  Maximum % activity (with co-corrector): "+++ (≥350)"

Would you kindly look at the next entry?
query: Tell me the measured Maximum % activity (with co-corrector) of COc1ncc(C2(C)CC2)cc1CN[C@H]1[C@H](C(C)(C)C)[C@@H](C(=O)O)N(C(=O)C2CCCCC2)[C@H]1c1ccccc1 , please.
result: +++ (≥350)
